Each recorded value in this set is attributed to PubChem BioAssay (NCATS).

- TEST_METHOD_NOTES: qHTS for differential inhibitors of proliferation of Plasmodium falciparum line HB3 (AID 1886);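 further: parasites grown with compound for 72 h before SYBR Green readout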
- TEST_CONDITIONS: Plasmodium falciparum HB3 proliferation inhibition; series mostly up to 28.7 µM
Records with an inconclusive call do not appear. Calls of active or inactive are those of the source. The call rests on the fitted dose curve; in most records, active means well fitted curve in the direction sought with a large enough effect; inconclusive means small, poorly fitted or top-dose-only effect, or another doubt; inactive means no such curve, though single readings can be large or run the other way.
Pick one and only one: Y (active), N (inactive)

Reference set (4 entries):
molecule=Oc1cc2c(cc1O)CN(C(=S)NCCc1ccc(Cl)cc1)CCC2 class=Y
molecule="C=CC(N)CCC(=O)O (centres undefined)" class=N
molecule=C=C/C(C)=C/[C@@]1(C)SC(=O)C(C)=C1O class=N
molecule=O=C(Nc1ccccc1)c1cc([N+](=O)[O-])ccc1Cl class=Y

How was Cc1ccc(C(=O)O[C@H](C(=O)O)[C@@H](OC(=O)c2ccc(C)cc2)C(=O)O)cc1 (tested in a mixture with another compound) classified in this test?
N

For `CCCN(CC1CC1)c1nc(C)nc(Nc2c(Cl)cc(Cl)cc2Cl)c1Cl` , what call appears in the results of this test?
Y

Please indicate how the test categorized `CC[C@@H](C)[C@H]1O[C@]2(CC[C@@H]1C)C[C@@H]1C[C@@H](C/C=C(\C)[C@@H](O[C@H]3C[C@H](OC)[C@@H](O[C@H]4C[C@H](OC)[C@@H](O)[C@H](C)O4)[C@H](C)O3)[C@@H](C)/C=C/C=C3\CO[C@@H]4[C@H](O)C(C)=C[C@@H](C(=O)O1)[C@]34O)O2` .
Y

Test call, this molecule: O=C(O)CC1CCCc2ccccc2C1O (centres undefined)
N

What outcome does the record of this test show for `O=C1C(SCCO)=C(SCCO)C(=O)c2ccccc21` ?
Y

* * *

- TEST_METHOD_NOTES: qHTS of pediatric cancer cell lines to identify multiple opportunities for drug repurposing: Primary screen for TC32 cells (AID 1347089); further: nearly all actives have a fitted effect of over 60% in size
- TEST_CONDITIONS: TC32 Ewing sarcoma viability, CellTiter-Glo luminescence, 48 h; series mostly up to 45.8 µM
Records with an inconclusive call do not appear. Calls of active or inactive are those of the source. The call rests on the fitted dose curve; in most records, active means well fitted cell-killing curve with a large enough effect; inconclusive means small, poorly fitted or top-dose-only effect; inactive means flat fitted curve, though single readings scatter.
Assign a class; possible classes are active, inactive

compound=COc1cccc2c1C(=O)c1c(O)c3c(c(O)c1C2=O)C[C@@](O)(C(=O)CO)C[C@@H]3O[C@H]1C[C@H](N)[C@H](O[C@@H]2CCCCO2)[C@H](C)O1 class=active
compound=O=C(O)c1cc(O)c(O)c(O)c1 class=inactive

Here is the next item to consider.
# outcome recorded in this test, key = CC(C(=O)O)c1ccc(C(=O)c2ccccc2)s1 (stereo unspecified)
inactive

* * *

- TEST_METHOD_NOTES: Natriuretic polypeptide receptor (hNpr1) antagonism - Pilot counterscreen GloSensor control cell line (AID 1347045)
- TEST_CONDITIONS: HEK293 cGMP GloSensor cells, SNP-stimulated luminescence, 20 min; series mostly up to 38.3 µM
Records with an inconclusive call do not appear. The source made the active and inactive calls. The call rests on the fitted dose curve.
PROPERTY_MEASURED: outcome

compound=OC[C@H]1O[C@@H](n2cnc3c(NC4CCCC4)ncnc32)[C@H](O)[C@@H]1O test_result=inactive
compound="CC(C)CC(NP(=O)(O)O[C@@H]1O[C@@H](C)[C@H](O)[C@@H](O)[C@H]1O)C(=O)NC(Cc1c[nH]c2ccccc12)C(=O)O (stereo partly drawn)" test_result=inactive
compound="CCC1C(=O)OCC1Cc1cncn1C (stereo not drawn)" test_result=inactive
